- assayed_system: Transient receptor potential cation channel subfamily V member 1 (Homo sapiens)
- test_description: Antagonist activity at human TRPV1
- Format: functional
pIC50: −log10 of the molar value.
measurement_kind: pIC50

compound_structure_string	measurement_kind	reading
CC(C)(F)CCc1cc(C(F)(F)F)ccc1CNC(=O)Nc1cccc2[nH]ncc12	pIC50	8.22
Cc1ccc(CNC(=O)Nc2cccc3[nH]ncc23)c(N2CCCCC2)n1	pIC50	7.80
O=C(NCc1ccc(C(F)(F)F)cc1Oc1ccccc1)Nc1cccc2[nH]ncc12	pIC50	8.05

[I] COCCCc1cc(C(F)(F)F)ccc1CNC(=O)Nc1cccc2[nH]ncc12
[II] O=C(NCc1ccc(C(F)(F)F)nc1N1CCCCC1)Nc1cccc2[nH]ncc12
[III] COCCOc1nc(C(F)(F)F)ccc1CNC(=O)Nc1cccc2[nH]ncc12
[IV] Cc1ccc(CNC(=O)Nc2cccc3[nH]ncc23)c(N2CCOCC2)n1
IN: Rank by pIC50 (largest to smallest). Reply format: the labels, ordered as requested.
OUT: II, I, III, IV
(II: 8.46, I: 8.10, III: 7.74, IV: 6.90)

###

- test_description: Oral bioavailability in rat at 10 µmol/kg
- condition_label: in vivo
measurement_kind: bioavailability (%)

[1] CC(C)(C)CCc1cc(C(F)(F)F)ccc1CNC(=O)Nc1cccc2[nH]ncc12
[2] Cn1ncc2c(NC(=O)NCc3ccc(C(F)(F)F)cc3CCC(C)(C)C)cccc21
IN: Of 1 and 2 , which one carries the higher reported bioavailability? Bench note: the answer is the label of the chosen record.
OUT: 2

###

- test_description: Plasma clearance in iv dosed rat
- Assay type: ADME, organism-based
measurement_kind: clearance (L/h/kg)
Write it as a number; the unit L/h/kg goes unstated.

IN: Give its clearance value. Item: CC(C)(C)CCc1cc(C(F)(F)F)ccc1CNC(=O)Nc1cccc2[nH]ncc12
OUT: 1.2

###

- Test system: Rattus norvegicus
- test_description: Plasma clearance in rat at 10 µmol/kg, po
- condition_label: in vivo
measurement_kind: clearance (mL/min/kg)
Write it as a number; the unit mL/min/kg goes unstated.

IN: Give its clearance value. Item: Cn1ncc2c(NC(=O)NCc3ccc(C(F)(F)F)cc3CCC(C)(C)C)cccc21
OUT: 13.3

###

- assayed_system: Transient receptor potential cation channel subfamily V member 1 (Homo sapiens)
- test_description: Antagonist activity at human TRPV1 expressed in HEK293 cells assessed as inhibition of capsaicin-induced effect by capsaicin
measurement_kind: IC50 (nM)

compound_structure_string	unit	IC50
CCn1ncc2c(NC(=O)NCc3ccc(C(F)(F)F)cc3CCC(C)(C)C)cccc21	nM	53

[P] CC(C)n1ncc2c(NC(=O)NCc3ccc(C(F)(F)F)cc3CCC(C)(C)C)cccc21
[Q] Cn1ncc2c(NC(=O)NCc3ccc(C(F)(F)F)cc3CCC(C)(C)C)cccc21
IN: Of P and Q , which one carries the higher reported IC50? Bench note: the answer is the label of the chosen record.
OUT: P
(P: 69 nM, Q: 7 nM)

###

- assayed_system: Transient receptor potential cation channel subfamily V member 1 (Homo sapiens, UniProt Q8NER1)
- Sequence (Q8NER1 whole entry): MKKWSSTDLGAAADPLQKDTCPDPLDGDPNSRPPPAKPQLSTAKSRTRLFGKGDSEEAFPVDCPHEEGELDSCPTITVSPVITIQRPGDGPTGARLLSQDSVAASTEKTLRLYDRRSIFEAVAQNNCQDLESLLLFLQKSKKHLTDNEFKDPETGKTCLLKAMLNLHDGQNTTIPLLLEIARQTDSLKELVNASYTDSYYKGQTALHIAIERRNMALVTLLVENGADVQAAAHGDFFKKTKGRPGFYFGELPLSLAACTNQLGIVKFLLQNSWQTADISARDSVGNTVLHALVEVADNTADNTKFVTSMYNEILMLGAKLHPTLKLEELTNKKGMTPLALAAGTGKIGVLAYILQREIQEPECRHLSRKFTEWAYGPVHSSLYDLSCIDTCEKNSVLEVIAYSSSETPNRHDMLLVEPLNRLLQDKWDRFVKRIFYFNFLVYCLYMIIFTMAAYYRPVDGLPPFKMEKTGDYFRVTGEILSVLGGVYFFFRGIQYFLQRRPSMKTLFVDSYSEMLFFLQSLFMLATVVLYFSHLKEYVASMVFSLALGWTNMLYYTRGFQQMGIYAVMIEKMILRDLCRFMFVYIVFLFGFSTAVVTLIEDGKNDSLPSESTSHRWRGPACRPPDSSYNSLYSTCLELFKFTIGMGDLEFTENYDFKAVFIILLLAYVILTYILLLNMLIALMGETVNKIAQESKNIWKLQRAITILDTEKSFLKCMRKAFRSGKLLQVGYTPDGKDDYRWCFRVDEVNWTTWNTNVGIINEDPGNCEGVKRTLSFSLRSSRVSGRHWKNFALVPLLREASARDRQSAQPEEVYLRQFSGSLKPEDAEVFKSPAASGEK
- test_description: Antagonist activity at human TRPV1 expressed in HEK293 cells assessed as inhibition of N-arachidonoyl-dopamine-induced effect
- Format: functional, cell-based
measurement_kind: IC50 (µM)
Write it as a number; the unit µM goes unstated.

IN: Give its IC50 value. Item: Cn1ncc2c(NC(=O)NCc3ccc(C(F)(F)F)cc3CCC(C)(C)C)cccc21
OUT: 0.015

The values you see were collected from ChEMBL document CHEMBL1155508.
